reported-endpoint: IC50 (nM)
Please state the figure in nM; there is no need to write the unit.

Input line: Report IC50 for CN[C@H]1CC[C@@H](c2ccc(Cl)c(Cl)c2)c2ccc(C#CCCCO)cc21 [compound Ia, hydroiodide] tested on Histamine H2 (Homo sapiens, UniProt P25021).
Sequence (P25021 whole entry): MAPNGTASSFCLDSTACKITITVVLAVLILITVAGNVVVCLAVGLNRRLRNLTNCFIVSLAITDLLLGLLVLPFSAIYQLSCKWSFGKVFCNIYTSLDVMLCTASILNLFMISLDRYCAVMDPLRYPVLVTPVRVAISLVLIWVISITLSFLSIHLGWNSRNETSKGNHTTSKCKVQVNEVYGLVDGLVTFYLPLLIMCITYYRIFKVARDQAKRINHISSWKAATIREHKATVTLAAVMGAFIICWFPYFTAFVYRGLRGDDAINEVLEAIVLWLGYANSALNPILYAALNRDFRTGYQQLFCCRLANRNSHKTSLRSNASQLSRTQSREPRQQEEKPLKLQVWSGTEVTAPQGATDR
Output line: 1560

###

test-target: Trasnporter, Dopamine (DAT) (Homo sapiens)
Sequence (Q01959 whole entry): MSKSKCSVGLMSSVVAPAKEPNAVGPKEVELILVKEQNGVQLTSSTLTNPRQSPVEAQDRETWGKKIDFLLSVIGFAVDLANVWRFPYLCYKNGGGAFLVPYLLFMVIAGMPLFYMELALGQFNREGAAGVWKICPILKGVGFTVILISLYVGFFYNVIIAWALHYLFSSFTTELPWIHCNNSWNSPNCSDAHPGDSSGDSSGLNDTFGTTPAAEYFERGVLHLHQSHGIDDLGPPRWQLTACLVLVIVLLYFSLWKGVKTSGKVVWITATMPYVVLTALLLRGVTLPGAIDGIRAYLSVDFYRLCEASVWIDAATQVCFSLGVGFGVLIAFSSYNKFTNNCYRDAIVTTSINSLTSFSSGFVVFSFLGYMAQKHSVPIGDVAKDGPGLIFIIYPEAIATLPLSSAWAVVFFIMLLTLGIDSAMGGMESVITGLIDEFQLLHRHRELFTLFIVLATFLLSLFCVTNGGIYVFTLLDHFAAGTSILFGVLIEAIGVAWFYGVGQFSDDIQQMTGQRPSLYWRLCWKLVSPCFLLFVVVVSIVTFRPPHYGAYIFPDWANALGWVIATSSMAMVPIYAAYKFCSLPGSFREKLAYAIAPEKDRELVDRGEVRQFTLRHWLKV
reported-endpoint: pKi
Interpret pKi as the negative base-10 log of the concentration measured in mol/L.

Input line: Recorded pKi for CN[C@H]1CC[C@@H](c2ccc(Cl)c(Cl)c2)c2ccc(C#CCCCO)cc21 [compound Ia, hydroiodide] , please?
Output line: 7.54

Where do these numbers come from? They come from patent US20100130549A1.
